- Target Desc: human σ1 receptor (Homo sapiens, UniProt Q99720)
- Sequence (Q99720 whole entry): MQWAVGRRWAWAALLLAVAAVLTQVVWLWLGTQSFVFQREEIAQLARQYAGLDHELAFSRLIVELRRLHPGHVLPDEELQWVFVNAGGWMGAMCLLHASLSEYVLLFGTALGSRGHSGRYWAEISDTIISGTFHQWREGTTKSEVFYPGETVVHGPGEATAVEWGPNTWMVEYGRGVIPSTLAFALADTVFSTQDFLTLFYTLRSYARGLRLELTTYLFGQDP
- Experimental Protocol: biochemical
- Format: binding
- Condition Label: read-out: μ and σ1 dual binding
pKi: −log10 of the molar value. Structures can show the parent of a compound that is named as a salt.
Quantity Kind: pKi

### Prompt Request the reported pKi associated with CC(=O)Nc1cccnc1CCN1CCC2(CC1)CN(c1ccccc1F)C(=O)C(C)O2 (stereo not shown) [Example 250]
### Response < 6.30

### Prompt What does the record list as pKi for O=C1CO[C@]2(CCN(Cc3ccccc3)C2)CN1c1ccccc1 [Example 350] ?
### Response < 6.30

### Prompt Param item = COc1cccc(CN2CC3(CCN(CCc4ccccc4)CC3)OCC2=O)c1 [Example 166, hydrochloride] ; retrieve measured pKi.
### Response > 6.30

### Prompt pKi for CC1OC2(CCN(CCc3ncccc3F)CC2)CN(c2cccnc2C(F)(F)F)C1=O (stereo not shown) [Example 48] ?
### Response < 6.30
